# target-of-assay: T1, human IL-18BP (interleukin-18 binding protein, isoform A) (human, UniProt O95998 31-194)
# T1 construct: cell assays used Sino Biological 10357-H08H; PBMC assay 1 relies on endogenous IL-18BP; UniProt number is printed as 095998; also called hIL-18BP
# T1 sequence: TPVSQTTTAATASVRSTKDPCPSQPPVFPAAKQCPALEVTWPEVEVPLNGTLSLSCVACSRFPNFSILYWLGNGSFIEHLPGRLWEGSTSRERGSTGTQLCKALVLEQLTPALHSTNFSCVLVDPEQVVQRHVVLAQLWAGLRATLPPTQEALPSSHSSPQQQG
# assay-explanation: BLI, affinity column of Table E8
Quick reference: Kd of the listed items.
Report the value in pM with no unit label.

Illustrative cases are given below, each with its answer.
For record SA303a (antibody, human IgG1, V domains shown, humanized; human IgG1 (suffix a), kappa) VH: QVQLQESGPGLVKPSQTLSLTCTVSGYSITSDYNAHWIRQPPGKGLEWIGYIHYSGSTNYNPSLKSRVTISRDTSKNQFSLKLSSVTAADTAVYYCARNFGSIYVNYFDYWGQGTLVTVSS VL: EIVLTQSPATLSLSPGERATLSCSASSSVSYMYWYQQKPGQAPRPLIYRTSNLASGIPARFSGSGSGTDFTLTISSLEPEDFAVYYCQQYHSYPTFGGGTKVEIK the listed Kd is 182

For record SA325a (antibody, human IgG1, V domains shown, humanized; human IgG1 (suffix a), kappa) VH: QVQLQESGPGLVKPSQTLSLTCTVSGYSITSDYNAHWIRQPPGKGLEWIGYIHYSGSTNYNPSLKSRVTISRDTSKNQFSLKLSSVTAADTAVYYCARNYGSIYVNYFDYWGQGTLVTVSS VL: EIVLTQSPATLSLSPGERATLSCSASSSVSYMYWYQQKPGQAPRPLIYRTSNLASGIPARFSGSGSGTDFTLTISSLEPEDFAVYYCQEYHSYPTFGGGTKVEIK the listed Kd is 468

For record SA317a (antibody, human IgG1, V domains shown, humanized; human IgG1 (suffix a), kappa) VH: QVQLQESGPGLVKPSQTLSLTCTVSGYSITSDYNAHWIRQPPGKGLEWIGYIHYSGSTLYNPSLKSRVTISRDTSKNQFSLKLSSVTAADTAVYYCARNYGSIYVNYFDYWGQGTLVTVSS VL: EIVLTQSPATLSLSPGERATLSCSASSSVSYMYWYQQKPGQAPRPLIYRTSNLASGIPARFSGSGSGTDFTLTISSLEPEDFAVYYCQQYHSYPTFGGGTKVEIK the listed Kd is 329

---
For record SA328a (antibody, human IgG1, V domains shown, humanized; human IgG1 (suffix a), kappa) VH: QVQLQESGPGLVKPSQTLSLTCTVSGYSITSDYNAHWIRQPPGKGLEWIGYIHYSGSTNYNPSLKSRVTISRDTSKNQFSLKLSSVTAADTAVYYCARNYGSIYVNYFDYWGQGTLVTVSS VL: EIVLTQSPATLSLSPGERATLSCSASSSVSYMYWYQQKPGQAPRPLIYRTSNLASGIPARFSGSGSGTDFTLTISSLEPEDFAVYYCQQYHSYVTFGGGTKVEIK the listed Kd is 133

For record SA309a (antibody, human IgG1, V domains shown, humanized; human IgG1 (suffix a), kappa) VH: QVQLQESGPGLVKPSQTLSLTCTVSGYSITSDYNAHWIRQPPGKGLEWIGYIHYSGQTNYNPSLKSRVTISRDTSKNQFSLKLSSVTAADTAVYYCARNYGSIYVNYFDYWGQGTLVTVSS VL: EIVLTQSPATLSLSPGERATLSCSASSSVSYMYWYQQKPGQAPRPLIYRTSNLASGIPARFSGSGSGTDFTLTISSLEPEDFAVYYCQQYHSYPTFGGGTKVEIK the listed Kd is 61

For record SA313a (antibody, human IgG1, V domains shown, humanized; human IgG1 (suffix a), kappa) VH: QVQLQESGPGLVKPSQTLSLTCTVSGYSITSDYNAHWIRQPPGKGLEWIGYIHYSGSTMYNPSLKSRVTISRDTSKNQFSLKLSSVTAADTAVYYCARNFGSIYVNYFDYWGQGTLVTVSS VL: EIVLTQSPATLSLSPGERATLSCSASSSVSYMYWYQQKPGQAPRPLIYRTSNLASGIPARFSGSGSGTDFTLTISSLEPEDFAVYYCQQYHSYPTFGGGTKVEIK the listed Kd is 272

For record SA318a (antibody, human IgG1, V domains shown, humanized; human IgG1 (suffix a), kappa) VH: QVQLQESGPGLVKPSQTLSLTCTVSGYSITQDYNAHWIRQPPGKGLEWIGYIHYSGQTMYNPSLKSRVTISRDTSKNQFSLKLSSVTAADTAVYYCARNFGSIYVNYFDYWGQGTLVTVSS VL: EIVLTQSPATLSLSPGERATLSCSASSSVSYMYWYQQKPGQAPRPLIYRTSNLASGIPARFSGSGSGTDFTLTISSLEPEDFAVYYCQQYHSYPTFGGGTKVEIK the listed Kd is 15

For record SA311a (antibody, human IgG1, V domains shown, humanized; human IgG1 (suffix a), kappa) VH: QVQLQESGPGLVKPSQTLSLTCTVSGYSITSDYNAHWIRQPPGKGLEWIGYIHYSGQTMYNPSLKSRVTISRDTSKNQFSLKLSSVTAADTAVYYCARNYGSIYVNYFDYWGQGTLVTVSS VL: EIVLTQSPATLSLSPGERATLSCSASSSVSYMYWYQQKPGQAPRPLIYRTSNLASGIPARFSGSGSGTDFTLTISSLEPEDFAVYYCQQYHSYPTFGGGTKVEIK the listed Kd is 243

For record SA329a (antibody, human IgG1, V domains shown, humanized; human IgG1 (suffix a), kappa) VH: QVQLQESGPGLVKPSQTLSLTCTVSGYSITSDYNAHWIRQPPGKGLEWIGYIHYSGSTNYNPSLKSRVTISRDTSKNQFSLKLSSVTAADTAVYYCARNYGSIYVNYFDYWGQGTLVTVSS VL: EIVLTQSPATLSLSPGERATLSCSASSSVSYMYWYQQKPGQAPRPLIYRTSNLASGIPARFSGSGSGTDFTLTISSLEPEDFAVYYCQQYHSYPKFGGGTKVEIK the listed Kd is 107

For record SA316a (antibody, human IgG1, V domains shown, humanized; human IgG1 (suffix a), kappa) VH: QVQLQESGPGLVKPSQTLSLTCTVSGYSITSDYNAHWIRQPPGKGLEWIGYIHYSGSTYYNPSLKSRVTISRDTSKNQFSLKLSSVTAADTAVYYCARNYGSIYVNYFDYWGQGTLVTVSS VL: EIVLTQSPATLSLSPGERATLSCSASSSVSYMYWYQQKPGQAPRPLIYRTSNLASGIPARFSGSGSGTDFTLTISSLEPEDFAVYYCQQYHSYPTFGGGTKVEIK the listed Kd is 228

For record SA302a (antibody, human IgG1, V domains shown, humanized; human IgG1 (suffix a), kappa) VH: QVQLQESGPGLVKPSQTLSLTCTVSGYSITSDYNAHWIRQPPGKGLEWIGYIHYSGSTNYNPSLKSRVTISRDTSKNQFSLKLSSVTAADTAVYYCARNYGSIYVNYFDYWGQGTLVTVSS VL: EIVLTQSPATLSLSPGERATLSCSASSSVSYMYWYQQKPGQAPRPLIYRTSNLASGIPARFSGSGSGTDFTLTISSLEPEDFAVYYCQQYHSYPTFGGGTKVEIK the listed Kd is 345
